Hey, just so you know, these numbers are from patent US11000491B2.

- Test system: SREBP-2
- procedure text: SREBP-2 expression in cultured primary human hepatocytes
- Assay type: cell-based
- test settings: Homo sapiens, Hepatocyte, procedure of Example 6, read-out: SREBP-2 mRNA inhibition (EC50)
pEC50: −log10 of the molar value.
# binarize pEC50: threshold 5 inclusive, high side Yes, low side No

Illustrative cases are given below, each with its answer.
compound	class label
NC(=O)c1cc(-c2ccc(Cl)cc2)cc(Oc2cccc(S(=O)(=O)NCCO)c2)c1N [HPN-01422]	Yes
NC(=O)c1cc(-c2ccc(Cl)cc2)cc(-c2ccc(S(N)(=O)=O)cc2)c1NCCO [HPN-01531]	Yes
COC(=O)c1ccc(-c2cc(C(N)=O)c(N)c(-c3ccc(S(N)(=O)=O)cc3)c2)cc1 [HPN-01301]	Yes

Record Cc1ccccc1C(=O)OCC#Cc1cc(C(N)=O)c(N)c(-c2ccc(S(N)(=O)=O)cc2)c1 [HPN-01212] ; criterion: pEC50 no lower than 5. Met? Yes

Record NC(=O)c1cc(-c2c[nH]c(Cl)c2)cc(-c2ccc(S(N)(=O)=O)cc2)c1N [HPN-01310] ; criterion: pEC50 no lower than 5. Met? No

Record Nc1c(C(=O)Nc2cccnc2)cc(-c2ccc(Cl)cc2)cc1-c1ccc(S(N)(=O)=O)cc1 [HPN-01625] ; criterion: pEC50 no lower than 5. Met? No

Record CCCC(=O)Nc1c(C(N)=O)cc(-c2ccc(Cl)cc2)cc1-c1ccc(NC(N)=O)cc1 [HPN-01519] ; criterion: pEC50 no lower than 5. Met? Yes

Record Nc1c(C(=O)Nc2cccc(F)c2)cc(-c2ccc(Cl)cc2)cc1-c1ccc(S(N)(=O)=O)cc1 [HPN-01613] ; criterion: pEC50 no lower than 5. Met? Yes

Record CC(C)OC(=O)/C=C/c1cc(C(N)=O)c(N)c(-c2ccc(S(N)(=O)=O)cc2)c1 [HPN-01116] ; criterion: pEC50 no lower than 5. Met? Yes

Record NC(=O)c1cc(-c2ccc(Br)cc2)cc(Oc2cccc(S(N)(=O)=O)c2)c1N [HPN-01415] ; criterion: pEC50 no lower than 5. Met? Yes

Record CNC(=O)c1cc(-c2ccc(Br)cc2)cc(-c2ccc(S(N)(=O)=O)cc2)c1N [HPN-01602] ; criterion: pEC50 no lower than 5. Met? Yes

###

- Test system: SREBP-2
- procedure text: SREBP-2 expression in cultured primary human hepatocytes
- Type: cell-based
- test settings: Homo sapiens, Hepatocyte, procedure of Example 6, read-out: SREBP-2 mRNA inhibition (EC50)
observed property: pEC50
Field pEC50 (float): negative decimal logarithm of the concentration in molar.

Observe how each entry below is paired with its result.
COc1ccccc1C(=O)OCC#Cc1cc(C(N)=O)c(N)c(-c2ccc(S(N)(=O)=O)cc2)c1 5.68
NC(=O)Nc1ccc(-c2cc(-c3ccc(Cl)cc3)cc(C(N)=O)c2NC(=O)CO)cc1 4.77
CC(=O)Oc1ccc(-c2cc(C(N)=O)c(N)c(-c3ccc(S(N)(=O)=O)cc3)c2)cc1 5.56
NC(=O)c1cc(C#Cc2ccc(Br)cc2)cc(-c2ccc(S(N)(=O)=O)cc2)c1N 5.56
CC(=O)Oc1ccc(/C=C/c2cc(C(N)=O)c(N)c(-c3ccc(S(N)(=O)=O)cc3)c2)cc1 5.28

Which value of pEC50 has been reported for `N=C(N)Nc1ccc(-c2cc(-c3ccc(Cl)cc3)cc(C(N)=O)c2N)cc1` in the records? 5.31

Which value of pEC50 has been reported for `NC(=O)c1cc(C#CCOC(=O)c2cccc(O)c2)cc(-c2ccc(S(N)(=O)=O)cc2)c1N` in the records? 5.16

Which value of pEC50 has been reported for `NC(=O)c1cc(-c2ccc(Cl)cc2)cc(Nc2ccc(S(N)(=O)=O)cc2)c1N` in the records? 5.60

Which value of pEC50 has been reported for `Cc1cccc(C(=O)OCC#Cc2cc(C(N)=O)c(N)c(-c3ccc(S(N)(=O)=O)cc3)c2)c1` in the records? 5.17

Which value of pEC50 has been reported for `CC(=O)OCC#Cc1cc(C(N)=O)c(N)c(-c2ccc(S(N)(=O)=O)cc2)c1` in the records? 5.38

Which value of pEC50 has been reported for `NC(=O)c1cc(-c2ccc(Cl)cc2)cc(-c2ccc(S(N)(=O)=O)cc2)c1NC(=O)C1CC1` in the records? 5.19

Which value of pEC50 has been reported for `COc1cccc(NC(=O)c2cc(-c3ccc(Br)cc3)cc(-c3ccc(S(N)(=O)=O)cc3)c2N)c1` in the records? 5.04

Which value of pEC50 has been reported for `CC(=O)Nc1c(C(N)=O)cc(-c2ccc(Cl)cc2)cc1-c1ccc(S(N)(=O)=O)cc1` in the records? 5.07

Which value of pEC50 has been reported for `Cc1ccc(C(=O)OCC#Cc2cc(C(N)=O)c(N)c(-c3ccc(S(N)(=O)=O)cc3)c2)cc1` in the records? 5.20

Which value of pEC50 has been reported for `NC(=O)c1cc(-c2ccc(Cl)nc2)cc(-c2ccc(S(N)(=O)=O)cc2)c1N` in the records? 5.34

Which value of pEC50 has been reported for `NC(=O)c1cc(-c2ccc(Cl)cc2)cc(Oc2cccc(S(N)(=O)=O)c2)c1N` in the records? 5.21
